The measured values listed here are drawn from patent US8242118B2.

# Assay system: Human CCR3 (Homo sapiens, UniProt P51677)
# Construct: The cloned CCR3 cDNA was constructed with pcDNA3 vector and transfected into a IC562 cell line; expressed in transfected cells
# Sequence (P51677 1-355): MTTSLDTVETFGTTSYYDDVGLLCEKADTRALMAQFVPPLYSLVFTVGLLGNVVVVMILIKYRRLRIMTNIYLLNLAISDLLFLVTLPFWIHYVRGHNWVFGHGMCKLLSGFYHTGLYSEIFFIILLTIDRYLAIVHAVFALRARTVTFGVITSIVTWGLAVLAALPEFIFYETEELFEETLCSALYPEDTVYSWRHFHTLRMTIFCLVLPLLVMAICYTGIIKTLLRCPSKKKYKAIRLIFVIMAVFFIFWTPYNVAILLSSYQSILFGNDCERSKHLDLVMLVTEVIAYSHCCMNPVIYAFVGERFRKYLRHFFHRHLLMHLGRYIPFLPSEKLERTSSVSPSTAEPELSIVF
# Assay protocol: Calcium mobilization assay, eotaxin-stimulated
# Assay type: cell-based
# Condition info: human CCR3-transformed K562 cells, 10 nM eotaxin; compounds of about 40 to 90% purity; read-out: Activity grade Ca2+ (IC50 class)
pIC50: −log10 of the molar value.
Quantity measured: pIC50

Solved cases below.
>>> df
                              record_smiles                              assay_system      reported
0  Cc1cc(C)cc(Oc2cc(Cl)c(C#N)cc2S(=O)(=O)N2CCNCC2)c1  Human CCR3 (Homo sapiens, UniProt P51677)  5.00 to 6.00
1  Cl.N[C@H]1CCN(S(=O)(=O)c2cc([N+](=O)[O-])ccc2Oc2cc(Cl)cc(Cl)c2)C1  Human CCR3 (Homo sapiens, UniProt P51677)        > 6.00
2  NC(=O)c1cc(F)c(Oc2cc(Cl)cc(Cl)c2)c(S(=O)(=O)N2CCNCC2)c1  Human CCR3 (Homo sapiens, UniProt P51677)  5.00 to 6.00
3  Cc1cccc(Nc2ccc([N+](=O)[O-])cc2S(=O)(=O)N2CCNCC2)c1  Human CCR3 (Homo sapiens, UniProt P51677)  5.00 to 6.00
4  Cl.O=[N+]([O-])c1ccc(Sc2cc(Cl)cc(Cl)c2)c(S(=O)(=O)N2CCNCC2)c1  Human CCR3 (Homo sapiens, UniProt P51677)        > 6.00

The compound Cc1cc(C)cc(Oc2ccc(N)cc2S(=O)(=O)N2CCN(C(=O)OC(C)(C)C)CC2)c1 on Human CCR3 (Homo sapiens, UniProt P51677): pIC50 was < 5.00

Query COc1ccccc1Oc1ccc([N+](=O)[O-])cc1S(=O)(=O)N1CCNCC1.Cl on Human CCR3 (Homo sapiens, UniProt P51677); pIC50 returned: > 6.00

The reported pIC50 value, Human CCR3 (Homo sapiens, UniProt P51677), for N#Cc1ccc(Oc2cc(Cl)cc(Cl)c2)c(S(=O)(=O)N2CCC[C@H]2CN2CCCC2)c1 reads > 6.00

Observed pIC50, Human CCR3 (Homo sapiens, UniProt P51677), Cc1cc(Oc2ccc([N+](=O)[O-])cc2S(=O)(=O)N2CCNCC2)cc(C)c1Cl : > 6.00

Kindly note: Human CCR3 (Homo sapiens, UniProt P51677), Cc1cc(C)cc(Oc2ccc(N)cc2S(=O)(=O)N2CCNCC2)c1.O=C(O)C(F)(F)F , pIC50 value reported: < 5.00

Item CCN1CCN(S(=O)(=O)c2cc([N+](=O)[O-])ccc2Oc2cc(C)cc(C)c2)CC1 was tested on Human CCR3 (Homo sapiens, UniProt P51677); the reported pIC50 is > 6.00

Item NCC1CCN(S(=O)(=O)c2cc([N+](=O)[O-])ccc2Sc2cc(Cl)cc(Cl)c2)CC1 was tested on Human CCR3 (Homo sapiens, UniProt P51677); the reported pIC50 is > 6.00

Readout pIC50 for O=[N+]([O-])c1ccc(Oc2cc(Cl)ccc2Cl)c(S(=O)(=O)N2CCNCC2)c1 , test system Human CCR3 (Homo sapiens, UniProt P51677), was > 6.00

With Human CCR3 (Homo sapiens, UniProt P51677) as the test system, NCCNS(=O)(=O)c1cc([N+](=O)[O-])ccc1Sc1cc(Cl)cc(Cl)c1 showed pIC50 of > 6.00

Observed pIC50, Human CCR3 (Homo sapiens, UniProt P51677), Cc1cc(C)cc(Oc2ccc(I)cc2S(=O)(=O)N2CCNCC2)c1.Cl : > 6.00
